# experimental_target: TAS2R60 (Homo sapiens)
# Sequence (P59551 whole entry): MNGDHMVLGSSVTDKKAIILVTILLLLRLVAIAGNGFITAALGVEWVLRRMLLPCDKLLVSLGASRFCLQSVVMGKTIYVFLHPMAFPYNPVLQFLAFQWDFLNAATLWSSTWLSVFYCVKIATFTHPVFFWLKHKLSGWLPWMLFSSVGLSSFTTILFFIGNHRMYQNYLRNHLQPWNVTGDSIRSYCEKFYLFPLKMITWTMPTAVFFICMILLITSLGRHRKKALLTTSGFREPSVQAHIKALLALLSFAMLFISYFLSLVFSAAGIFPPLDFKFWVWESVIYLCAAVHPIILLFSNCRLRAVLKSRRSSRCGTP
# assay_overview: Calcium fluorescence functional assay, TAS2R60 cell line
# condition_summary: increasing concentrations of KCl; TAS2R60 cell line (FIG. 3); read-out: EC50 value, activation of TAS2R60
pEC50: −log10 of the molar value.

compound	experimental_target	pEC50
[Cl-].[K+] [KCl, potassium chloride]	TAS2R60 (Homo sapiens)	1.82 to 2.30

* * *

# experimental_target: TAS2R9 (Homo sapiens)
# Construct: expressed in transfected cells
# Sequence (Q9NYW1 whole entry): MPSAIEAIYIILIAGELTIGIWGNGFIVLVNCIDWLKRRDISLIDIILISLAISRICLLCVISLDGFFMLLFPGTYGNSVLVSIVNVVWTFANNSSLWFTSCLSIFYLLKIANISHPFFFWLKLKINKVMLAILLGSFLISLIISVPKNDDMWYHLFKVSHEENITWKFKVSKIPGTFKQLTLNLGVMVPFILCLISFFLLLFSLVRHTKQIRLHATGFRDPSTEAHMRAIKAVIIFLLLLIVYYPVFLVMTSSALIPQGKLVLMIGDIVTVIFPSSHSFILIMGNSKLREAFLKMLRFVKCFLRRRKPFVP
# assay_overview: Calcium fluorescence functional assay, TAS2R9 cell line
# Type: cell-based
# condition_summary: increasing concentrations of KCl; TAS2R9 cell line (FIG. 3); read-out: EC50 value, activation of TAS2R9
pEC50: −log10 of the molar value.

compound	pEC50
[Cl-].[K+] [KCl, potassium chloride]	1.82 to 2.30
